Just for reference, the Human Domainome abundance scans (Beltran et al. 2025) is where these values come from.

B1: Intersectin-1, residues 909 to 971; numbered along this chain, Q15811 (parent)
chain: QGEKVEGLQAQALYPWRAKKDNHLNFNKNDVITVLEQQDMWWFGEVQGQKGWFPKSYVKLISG

Variants of: B1
Protocol Description: abundance fitness (aPCA) (normalised: wild type 0, dead -1); higher = more abundant; growth selection in yeast, the domain comes from the species named
Experimental Context: Homo sapiens
Please use yes (1) whenever abundance fitness is not below -0.2, and no (0) whenever it is.

Check if abundance fitness >= -0.2 (inclusive). Item: QGEKVEGLQAQALYPWRAKKDNHLNFNKNDVITVLEQQDMWWFGEVQGQQGWFPKSYVKLISG [K50Q] no (0)

hey, is abundance fitness for this one >= -0.2? QGEKVEGLQAYALYPWRAKKDNHLNFNKNDVITVLEQQDMWWFGEVQGQKGWFPKSYVKLISG [Q11Y] yes (1)
